Activity overview
- Assayed target: Xanthine dehydrogenase/oxidase (Bos taurus)
- Sequence (P80457 whole entry): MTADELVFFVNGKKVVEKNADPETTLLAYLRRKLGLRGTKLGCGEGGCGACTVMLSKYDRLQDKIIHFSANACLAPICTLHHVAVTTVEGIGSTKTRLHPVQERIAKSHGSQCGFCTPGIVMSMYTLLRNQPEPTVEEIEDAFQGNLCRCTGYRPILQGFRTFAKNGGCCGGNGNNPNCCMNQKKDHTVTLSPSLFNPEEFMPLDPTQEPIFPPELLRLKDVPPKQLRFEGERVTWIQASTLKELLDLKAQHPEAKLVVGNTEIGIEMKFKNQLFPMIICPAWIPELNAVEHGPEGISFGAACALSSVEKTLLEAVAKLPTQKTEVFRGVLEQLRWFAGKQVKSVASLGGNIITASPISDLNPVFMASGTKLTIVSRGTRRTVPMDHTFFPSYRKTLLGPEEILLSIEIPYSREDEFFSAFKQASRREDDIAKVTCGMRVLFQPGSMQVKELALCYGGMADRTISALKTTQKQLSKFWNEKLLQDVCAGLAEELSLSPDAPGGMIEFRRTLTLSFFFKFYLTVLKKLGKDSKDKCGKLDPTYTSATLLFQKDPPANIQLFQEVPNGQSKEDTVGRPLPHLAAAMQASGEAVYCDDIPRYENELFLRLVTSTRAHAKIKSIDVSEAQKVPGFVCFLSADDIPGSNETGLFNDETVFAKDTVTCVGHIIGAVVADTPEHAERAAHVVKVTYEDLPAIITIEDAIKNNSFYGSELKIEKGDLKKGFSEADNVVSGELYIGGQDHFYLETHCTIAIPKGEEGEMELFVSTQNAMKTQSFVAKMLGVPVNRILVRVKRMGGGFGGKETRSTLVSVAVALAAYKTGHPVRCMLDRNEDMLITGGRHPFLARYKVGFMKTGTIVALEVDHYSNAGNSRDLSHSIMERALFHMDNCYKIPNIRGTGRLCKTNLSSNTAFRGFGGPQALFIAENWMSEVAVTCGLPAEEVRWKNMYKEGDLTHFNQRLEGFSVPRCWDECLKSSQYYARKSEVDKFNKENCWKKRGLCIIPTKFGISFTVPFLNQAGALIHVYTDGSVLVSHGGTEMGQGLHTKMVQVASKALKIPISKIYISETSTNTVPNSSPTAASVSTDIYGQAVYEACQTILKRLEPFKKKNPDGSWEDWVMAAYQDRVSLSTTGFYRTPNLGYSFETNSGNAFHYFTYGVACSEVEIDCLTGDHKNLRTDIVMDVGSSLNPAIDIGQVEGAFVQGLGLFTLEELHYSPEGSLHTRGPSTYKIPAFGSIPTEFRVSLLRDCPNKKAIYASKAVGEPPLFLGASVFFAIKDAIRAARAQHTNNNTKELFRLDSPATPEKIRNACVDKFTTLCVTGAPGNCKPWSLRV
- Method: Inhibition of bovine xanthine oxidase assessed as reduction of cytochrome c at 50 uM
- Cond: cattle
Kindly provide the numeric value in nM/s only, without the unit symbol.

Worked examples follow.
[
  {
    "Compound": "Oc1ncnc2[nH]ncc12",
    "Activity, nM/s": 120
  },
  {
    "Compound": "O=c1cc(-c2ccc(O)c(O)c2)oc2cc(O)cc(O)c12",
    "Activity, nM/s": 71
  },
  {
    "Compound": "O=c1c(O)c(-c2ccc(O)c(O)c2)oc2cc(O)cc(O)c12",
    "Activity, nM/s": 80
  },
  {
    "Compound": "COc1cc(/C=C/C(=O)CC(=O)/C=C/c2ccc(O)c(OC)c2)ccc1O",
    "Activity, nM/s": 150
  }
]

Exercise: Requested read-out Activity, target or system Xanthine dehydrogenase/oxidase (Bos taurus), entry COc1cc(C2Oc3cc([C@H]4Oc5cc(O)cc(O)c5C(=O)[C@@H]4O)ccc3OC2CO)ccc1O (stereo not given in full)
Solution: 140
